# Test system: HeLa cells
# TEST: Antiproliferative activity, CellTiter-Blue viability
# Type: cell-based
# CONDITION_DETAILS: Homo sapiens, 72 h, read-out: IC50 against HeLa
QUANTITY_MEASURED: pIC50
Here pIC50 is given on a logarithmic scale as minus log10 of the concentration in mol/L.

MOLECULE | QUANTITY_MEASURED | READING
Oc1ccc(-c2nc3ccc4[nH]ncc4c3c3c2CCCC3)c(F)c1 [HSD972] | pIC50 | 5.32

Consider the molecule shown here: Nc1ccc(-c2nc3ccc4[nH]ncc4c3c3c2CCCC3)cc1 [HSD929] What is its recorded pIC50?
5.44

The measured values listed here are drawn from paper PMC5972072.
